Reference source: ChEMBL document CHEMBL1153793

- Tested on: RAW264.7
- method: Effect on inflammatory mediators in mouse RAW264.7 cells assessed as PGE2 accumulation at 20% IC50 after 24 hrs by ELISA
- Type: functional
Below, each of the molecules is paired with its reported Activity value.

| structure | Activity, pg |
| --- | --- |
| CC(C)c1ccc(-c2cc(-c3ccc4c(c3)CCCC4)nc(Cl)c2C#N)cc1 | 45.39 |
| CC(C)c1ccc(-c2cc(-c3ccc4c(c3)CCCC4)nc(OCC(=O)NN)c2C#N)cc1 | 43.6 |
| CC(C)c1ccc(-c2cc(-c3ccc4c(c3)CCCC4)nc(OCC(=O)NCc3ccccc3)c2C#N)cc1 | 48.15 |
| CCOC(=O)COc1nc(-c2ccc3c(c2)CCCC3)cc(-c2ccc(OC)c(OC)c2)c1C#N | 22.4 |
| COc1ccc(-c2cc(-c3ccc4c(c3)CCCC4)nc(NCc3ccccc3)c2C#N)cc1OC | 31.29 |
| COc1ccc(-c2cc(-c3ccc4c(c3)CCCC4)[nH]c(=S)c2C#N)cc1OC | 28.66 |
| CCOC(=O)COc1nc(-c2ccc3c(c2)CCCC3)cc(-c2ccc(C(C)C)cc2)c1C#N | 50.5 |

====

- Test system: RAW264.7
- method: Effect on inflammatory mediators in LPS-stimulated mouse RAW264.7 cells assessed as TNF-alpha accumulation at 20 uM after 24 hrs by ELISA
- Type: functional
param class (str): category from Activity; see ranges range A = under 2000 pg, range B = from 2000 pg up to 5000 pg, range C = 5000 pg and over

| structure | cat |
| --- | --- |
| CC(C)c1ccc(-c2cc(-c3ccc4c(c3)CCCC4)[nH]c(=S)c2C#N)cc1 | range A |
| COc1ccc(-c2cc(-c3ccc4c(c3)CCCC4)nc(Cl)c2C#N)cc1OC | range C |
| COc1ccc(-c2cc(-c3ccc4c(c3)CCCC4)nc(OCC(=O)NCc3ccccc3)c2C#N)cc1OC | range A |
| CC(C)c1ccc(-c2cc(-c3ccc4c(c3)CCCC4)[nH]c(=O)c2C#N)cc1 | range A |
| CC(C)c1ccc(-c2cc(-c3ccc4c(c3)CCCC4)nc3[nH]nc(N)c23)cc1 | range A |
| COc1ccc(-c2cc(-c3ccc4c(c3)CCCC4)[nH]c(=O)c2C#N)cc1OC | range B |
| CC(C)c1ccc(-c2cc(-c3ccc4c(c3)CCCC4)nc(NCc3ccccc3)c2C#N)cc1 | range C |
| COc1ccc(-c2cc(-c3ccc4c(c3)CCCC4)nc3[nH]nc(N)c23)cc1OC | range B |

====

- System: RAW264.7
- method: Effect on inflammatory mediators in mouse RAW264.7 cells assessed as PGE2 accumulation at 20 uM after 24 hrs by ELISA
- Assay type: functional
Below, each of the compounds is paired with its reported Activity value.
value_kind: Activity (pg)

| structure | system_under_test | unit_abbreviation | val |
| --- | --- | --- | --- |
| CC(C)c1ccc(-c2cc(-c3ccc4c(c3)CCCC4)nc3[nH]nc(N)c23)cc1 | RAW264.7 | pg | 32.21 |
| COc1ccc(-c2cc(-c3ccc4c(c3)CCCC4)nc3[nH]nc(N)c23)cc1OC | RAW264.7 | pg | 28.6 |
| N#Cc1c(-c2c[nH]c3ccccc23)cc(-c2ccc3c(c2)CCCC3)[nH]c1=S | RAW264.7 | pg | 49.82 |
| COc1ccc(-c2cc(-c3ccc4c(c3)CCCC4)nc(OCC(=O)NCc3ccccc3)c2C#N)cc1OC | RAW264.7 | pg | 53.1 |
| N#Cc1c(-c2c[nH]c3ccccc23)cc(-c2ccc3c(c2)CCCC3)[nH]c1=O | RAW264.7 | pg | 32.63 |
| CC(C)c1ccc(-c2cc(-c3ccc4c(c3)CCCC4)[nH]c(=S)c2C#N)cc1 | RAW264.7 | pg | 41.84 |
| CC(C)c1ccc(-c2cc(-c3ccc4c(c3)CCCC4)[nH]c(=O)c2C#N)cc1 | RAW264.7 | pg | 40.13 |
| COc1ccc(-c2cc(-c3ccc4c(c3)CCCC4)nc(Cl)c2C#N)cc1OC | RAW264.7 | pg | 38.33 |
| CC(C)c1ccc(-c2cc(-c3ccc4c(c3)CCCC4)nc(NCc3ccccc3)c2C#N)cc1 | RAW264.7 | pg | 48.3 |
| COc1ccc(-c2cc(-c3ccc4c(c3)CCCC4)nc(OCC(=O)NN)c2C#N)cc1OC | RAW264.7 | pg | 25.6 |
| COc1ccc(-c2cc(-c3ccc4c(c3)CCCC4)[nH]c(=O)c2C#N)cc1OC | RAW264.7 | pg | 30.35 |

====

Below, each of the compounds is paired with its reported Activity value.
- Tested on: RAW264.7
- method: Effect on inflammatory mediators in mouse RAW264.7 cells assessed as COX-2 accumulation at 20% IC50 after 24 hrs by dot immunoblotting
- Type: functional

| structure | Activity, % |
| --- | --- |
| COc1ccc(-c2cc(-c3ccc4c(c3)CCCC4)nc(NCc3ccccc3)c2C#N)cc1OC | 46.3 |
| CCOC(=O)COc1nc(-c2ccc3c(c2)CCCC3)cc(-c2ccc(C(C)C)cc2)c1C#N | 18.7 |
| CC(C)c1ccc(-c2cc(-c3ccc4c(c3)CCCC4)nc(OCC(=O)NCc3ccccc3)c2C#N)cc1 | 20.6 |
| CC(C)c1ccc(-c2cc(-c3ccc4c(c3)CCCC4)nc(Cl)c2C#N)cc1 | 28.7 |
| CC(C)c1ccc(-c2cc(-c3ccc4c(c3)CCCC4)nc(OCC(=O)NN)c2C#N)cc1 | 63.1 |
| CCOC(=O)COc1nc(-c2ccc3c(c2)CCCC3)cc(-c2ccc(OC)c(OC)c2)c1C#N | 27.5 |
| COc1ccc(-c2cc(-c3ccc4c(c3)CCCC4)[nH]c(=S)c2C#N)cc1OC | 12.3 |

====

- System: RAW264.7
- method: Effect on inflammatory mediators in LPS-stimulated mouse RAW264.7 cells assessed as PGE2 accumulation at 20 uM after 24 hrs by ELISA
- Type: functional
So basically: is Activity under 3000 pg? Then t. Not under? Then f.

| structure | system_under_test | cat |
| --- | --- | --- |
| COc1ccc(-c2cc(-c3ccc4c(c3)CCCC4)nc(OCC(=O)NCc3ccccc3)c2C#N)cc1OC | RAW264.7 | t |
| N#Cc1c(-c2c[nH]c3ccccc23)cc(-c2ccc3c(c2)CCCC3)[nH]c1=O | RAW264.7 | f |
| COc1ccc(-c2cc(-c3ccc4c(c3)CCCC4)nc(OCC(=O)NN)c2C#N)cc1OC | RAW264.7 | f |
| COc1ccc(-c2cc(-c3ccc4c(c3)CCCC4)[nH]c(=O)c2C#N)cc1OC | RAW264.7 | f |
| COc1ccc(-c2cc(-c3ccc4c(c3)CCCC4)nc(Cl)c2C#N)cc1OC | RAW264.7 | f |
| CC(C)c1ccc(-c2cc(-c3ccc4c(c3)CCCC4)nc(NCc3ccccc3)c2C#N)cc1 | RAW264.7 | f |
| CC(C)c1ccc(-c2cc(-c3ccc4c(c3)CCCC4)[nH]c(=O)c2C#N)cc1 | RAW264.7 | t |
| CC(C)c1ccc(-c2cc(-c3ccc4c(c3)CCCC4)[nH]c(=S)c2C#N)cc1 | RAW264.7 | t |
| COc1ccc(-c2cc(-c3ccc4c(c3)CCCC4)nc3[nH]nc(N)c23)cc1OC | RAW264.7 | f |

====

- System: RAW264.7
- method: Effect on inflammatory mediators in LPS-stimulated mouse RAW264.7 cells assessed as COX-2 accumulation at 20 uM after 24 hrs by dot immunoblotting
- Assay type: functional
Tag: Criterion met if measured Activity is not below 60%, Criterion not met if it is.

| structure | cat |
| --- | --- |
| COc1ccc(-c2cc(-c3ccc4c(c3)CCCC4)nc(Cl)c2C#N)cc1OC | Criterion met |
| CC(C)c1ccc(-c2cc(-c3ccc4c(c3)CCCC4)[nH]c(=S)c2C#N)cc1 | Criterion not met |
| CC(C)c1ccc(-c2cc(-c3ccc4c(c3)CCCC4)nc(NCc3ccccc3)c2C#N)cc1 | Criterion met |
| CC(C)c1ccc(-c2cc(-c3ccc4c(c3)CCCC4)[nH]c(=O)c2C#N)cc1 | Criterion not met |
| COc1ccc(-c2cc(-c3ccc4c(c3)CCCC4)[nH]c(=O)c2C#N)cc1OC | Criterion met |
| CC(C)c1ccc(-c2cc(-c3ccc4c(c3)CCCC4)nc(Cl)c2C#N)cc1 | Criterion met |
| N#Cc1c(-c2c[nH]c3ccccc23)cc(-c2ccc3c(c2)CCCC3)[nH]c1=O | Criterion met |
| COc1ccc(-c2cc(-c3ccc4c(c3)CCCC4)nc(OCC(=O)NN)c2C#N)cc1OC | Criterion met |
| COc1ccc(-c2cc(-c3ccc4c(c3)CCCC4)nc(OCC(=O)NCc3ccccc3)c2C#N)cc1OC | Criterion met |
| COc1ccc(-c2cc(-c3ccc4c(c3)CCCC4)nc3[nH]nc(N)c23)cc1OC | Criterion met |
